molecular target: Angiotensin-converting enzyme (Rattus norvegicus); assay: Compound was tested for plasma inhibition of Angiotensin I converting enzyme activity in the conscious rat. Expressed as Inhibition of AI pressor response at 6 hr at a dose of 13.1 mg/kg po; format: organism-based; set-up: dose 13.1 mg/kg
endpoint-name: inhibition (%)

Illustrative cases are given below, each with its answer.
line_notation=CCOC(=O)[C@H](Cc1ccc(OC(=O)CC)cc1)NC(=O)C1(NC(=O)[C@H](SC(C)=O)C(C)C)CCCC1 endpoint_name=inhibition recorded_result=4
line_notation=COc1ccc(C[C@H](NC(=O)C2(NC(=O)[C@H](SC(C)=O)C(C)C)CCCC2)C(=O)OCc2ccccc2)cc1 endpoint_name=inhibition recorded_result=64
line_notation=CCCCCCOC(=O)[C@H](Cc1ccc(O)cc1)NC(=O)C1(NC(=O)[C@H](SC(C)=O)C(C)C)CCCC1 endpoint_name=inhibition recorded_result=16
line_notation=CCCCOC(=O)[C@H](Cc1ccc(O)cc1)NC(=O)C1(NC(=O)[C@H](SC(=O)CCC)C(C)C)CCCC1 endpoint_name=inhibition recorded_result=69

1. CCCCOC(=O)[C@H](Cc1ccc(O)cc1)NC(=O)C1(NC(=O)[C@H](SC(=O)COC)C(C)C)CCCC1
2. CC(=O)S[C@@H](C(=O)NC1(C(=O)N[C@@H](Cc2ccc(O)cc2)C(=O)OCc2ccccc2)CCCC1)C(C)C
Just curious, which one has the larger inhibition reading, 1 or 2 ? Please respond with the label that marks your chosen entry.
1
(1: 54%, 2: 28%)

----------
Target: Angiotensin-converting enzyme (Rattus norvegicus) (UniProt P47820)
Sequence (whole entry): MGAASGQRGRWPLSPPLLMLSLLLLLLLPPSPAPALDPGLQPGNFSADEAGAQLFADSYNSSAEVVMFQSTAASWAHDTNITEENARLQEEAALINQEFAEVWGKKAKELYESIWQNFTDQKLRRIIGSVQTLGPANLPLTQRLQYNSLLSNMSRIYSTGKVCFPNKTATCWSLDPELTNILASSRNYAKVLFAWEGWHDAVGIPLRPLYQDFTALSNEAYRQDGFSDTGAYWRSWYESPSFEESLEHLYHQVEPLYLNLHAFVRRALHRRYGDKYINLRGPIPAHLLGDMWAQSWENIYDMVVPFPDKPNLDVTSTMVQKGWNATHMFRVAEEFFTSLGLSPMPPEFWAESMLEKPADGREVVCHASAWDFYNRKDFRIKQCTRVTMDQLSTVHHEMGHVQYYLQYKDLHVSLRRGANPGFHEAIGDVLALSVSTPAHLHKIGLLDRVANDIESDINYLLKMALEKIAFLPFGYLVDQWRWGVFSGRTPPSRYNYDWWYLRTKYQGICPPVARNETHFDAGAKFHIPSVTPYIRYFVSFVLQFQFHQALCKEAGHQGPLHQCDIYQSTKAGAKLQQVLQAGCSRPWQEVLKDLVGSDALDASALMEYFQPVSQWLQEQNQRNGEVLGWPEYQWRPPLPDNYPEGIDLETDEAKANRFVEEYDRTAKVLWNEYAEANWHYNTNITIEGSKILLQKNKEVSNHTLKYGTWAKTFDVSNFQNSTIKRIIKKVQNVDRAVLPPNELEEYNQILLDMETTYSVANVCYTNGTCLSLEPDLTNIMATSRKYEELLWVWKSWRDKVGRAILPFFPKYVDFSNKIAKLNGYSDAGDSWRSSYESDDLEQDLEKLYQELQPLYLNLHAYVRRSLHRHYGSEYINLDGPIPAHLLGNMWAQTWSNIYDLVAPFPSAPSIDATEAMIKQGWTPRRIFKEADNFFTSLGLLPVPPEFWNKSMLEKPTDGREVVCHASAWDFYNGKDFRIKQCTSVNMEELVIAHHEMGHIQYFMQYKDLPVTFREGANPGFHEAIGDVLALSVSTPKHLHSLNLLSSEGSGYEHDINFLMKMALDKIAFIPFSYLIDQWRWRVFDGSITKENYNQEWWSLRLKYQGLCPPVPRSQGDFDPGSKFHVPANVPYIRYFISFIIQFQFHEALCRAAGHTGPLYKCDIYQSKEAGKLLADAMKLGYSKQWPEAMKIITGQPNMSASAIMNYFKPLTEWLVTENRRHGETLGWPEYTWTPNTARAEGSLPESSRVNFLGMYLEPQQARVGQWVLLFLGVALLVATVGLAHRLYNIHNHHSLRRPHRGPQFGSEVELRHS
Experiment: Compound was tested for plasma inhibition of Angiotensin I converting enzyme activity in the conscious rat. Expressed as Inhibition of AI pressor response at 1 hr at a dose of 13.1 mg/kg po
Assay type: organism-based
Design: dose 13.1 mg/kg
endpoint-name: inhibition (%)

line_notation=CC(=O)S[C@@H](C(=O)NC1(C(=O)N[C@@H](Cc2ccc(O)cc2)C(=O)OCc2ccccc2)CCCC1)C(C)C measurement_target="Angiotensin-converting enzyme (Rattus norvegicus) (UniProt P47820)" recorded_result=72
line_notation=CCCCOC(=O)[C@H](Cc1ccc(O)cc1)NC(=O)C1(NC(=O)[C@H](SC(=O)C(C)C)C(C)C)CCCC1 measurement_target="Angiotensin-converting enzyme (Rattus norvegicus) (UniProt P47820)" recorded_result=27
line_notation=COc1ccc(C[C@H](NC(=O)C2(NC(=O)[C@H](SC(C)=O)C(C)C)CCCC2)C(=O)OCc2ccccc2)cc1 measurement_target="Angiotensin-converting enzyme (Rattus norvegicus) (UniProt P47820)" recorded_result=85
line_notation=CCCCOC(=O)[C@H](Cc1ccc(O)cc1)NC(=O)C1(NC(=O)[C@H](SC(=O)COC)C(C)C)CCCC1 measurement_target="Angiotensin-converting enzyme (Rattus norvegicus) (UniProt P47820)" recorded_result=76
line_notation=CCCCCCOC(=O)[C@H](Cc1ccc(O)cc1)NC(=O)C1(NC(=O)[C@H](SC(C)=O)C(C)C)CCCC1 measurement_target="Angiotensin-converting enzyme (Rattus norvegicus) (UniProt P47820)" recorded_result=64

I. CCCCOC(=O)[C@H](Cc1ccc(O)cc1)NC(=O)C1(NC(=O)[C@H](SC(=O)CCC)C(C)C)CCCC1
II. CCOC(=O)[C@H](Cc1ccc(OC(=O)CC)cc1)NC(=O)C1(NC(=O)[C@H](SC(C)=O)C(C)C)CCCC1
Smaller inhibition value? Options are I and II Please respond with the label that marks your chosen entry.
II

----------
Molecular target: Angiotensin-converting enzyme (Rattus norvegicus)
Sequence (whole entry): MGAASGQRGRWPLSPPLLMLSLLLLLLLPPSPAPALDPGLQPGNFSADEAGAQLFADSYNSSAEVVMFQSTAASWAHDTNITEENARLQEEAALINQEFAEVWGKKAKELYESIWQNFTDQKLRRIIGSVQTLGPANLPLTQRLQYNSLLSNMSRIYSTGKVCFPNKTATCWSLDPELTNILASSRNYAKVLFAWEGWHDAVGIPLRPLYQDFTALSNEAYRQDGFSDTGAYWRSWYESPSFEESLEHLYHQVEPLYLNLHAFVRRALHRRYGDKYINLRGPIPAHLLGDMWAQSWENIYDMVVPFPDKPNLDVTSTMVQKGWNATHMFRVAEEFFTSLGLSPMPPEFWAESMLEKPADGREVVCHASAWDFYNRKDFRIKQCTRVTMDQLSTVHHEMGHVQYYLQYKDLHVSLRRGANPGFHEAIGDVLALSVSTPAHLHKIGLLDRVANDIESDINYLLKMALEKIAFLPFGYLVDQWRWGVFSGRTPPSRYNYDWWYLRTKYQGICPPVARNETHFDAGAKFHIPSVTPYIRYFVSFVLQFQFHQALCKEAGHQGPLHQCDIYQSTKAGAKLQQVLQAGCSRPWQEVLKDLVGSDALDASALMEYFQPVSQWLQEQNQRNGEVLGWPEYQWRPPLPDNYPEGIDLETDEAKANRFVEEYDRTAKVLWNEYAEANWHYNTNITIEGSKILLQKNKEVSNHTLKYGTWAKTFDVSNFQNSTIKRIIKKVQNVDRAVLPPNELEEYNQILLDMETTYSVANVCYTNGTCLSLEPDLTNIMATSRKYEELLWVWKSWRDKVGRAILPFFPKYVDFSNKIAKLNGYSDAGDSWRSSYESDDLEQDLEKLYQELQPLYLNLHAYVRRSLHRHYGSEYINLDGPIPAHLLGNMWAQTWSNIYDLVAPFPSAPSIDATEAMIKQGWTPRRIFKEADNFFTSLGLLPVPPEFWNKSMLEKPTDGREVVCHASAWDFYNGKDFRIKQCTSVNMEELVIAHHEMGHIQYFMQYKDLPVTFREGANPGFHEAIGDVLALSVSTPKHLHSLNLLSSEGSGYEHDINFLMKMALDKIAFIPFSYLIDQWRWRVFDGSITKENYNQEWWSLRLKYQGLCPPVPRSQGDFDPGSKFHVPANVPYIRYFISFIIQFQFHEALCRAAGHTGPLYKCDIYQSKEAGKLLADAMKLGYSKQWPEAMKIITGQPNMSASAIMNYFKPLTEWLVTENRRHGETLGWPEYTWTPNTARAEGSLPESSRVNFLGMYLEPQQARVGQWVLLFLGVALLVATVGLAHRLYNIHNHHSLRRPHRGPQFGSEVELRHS
Experiment: Compound was tested for plasma inhibition of Angiotensin I converting enzyme activity in the conscious rat. Expressed as Inhibition of AI pressor response at 2 hr at a dose of 12.8 mg/kg po
Assay type: organism-based
Design: dose 12.8 mg/kg
endpoint-name: inhibition (%)

Illustrative cases are given below, each with its answer.
line_notation=CCCCOC(=O)[C@H](Cc1ccc(O)cc1)NC(=O)C1(NC(=O)[C@H](SC(=O)CC)C(C)C)CCCC1 measurement_target="Angiotensin-converting enzyme (Rattus norvegicus)" recorded_result=71
line_notation=CCOC(=O)[C@H](Cc1ccc(O)cc1)NC(=O)C1(NC(=O)[C@H](SC(=O)CN(C)C)C(C)C)CCCC1 measurement_target="Angiotensin-converting enzyme (Rattus norvegicus)" recorded_result=63
line_notation=CCCCOC(=O)[C@H](Cc1ccc(OC)cc1)NC(=O)C1(NC(=O)[C@H](SC(C)=O)C(C)C)CCCC1 measurement_target="Angiotensin-converting enzyme (Rattus norvegicus)" recorded_result=70

I. CCOC(=O)[C@H](Cc1ccc(OC(C)=O)cc1)NC(=O)C1(NC(=O)[C@H](SC(C)=O)C(C)C)CCCC1
II. CCOC(=O)[C@H](Cc1ccc(O)cc1)NC(=O)C1(NC(=O)[C@H](SC(=O)C(C)(C)C)C(C)C)CCCC1
Just curious, which one has the larger inhibition reading, I or II ? Please respond with the label that marks your chosen entry.
I
(I: 52%, II: 17%)
